# tested_on: T1, human pro-myostatin (human, UniProt O14793 24-375, biotinylated (in the SPR assay))
# T1 construct: Disulfide-linked homodimer; also called proGDF8 (human)
# experiment_description: SPR Biacore 8K, biotin-antigen captured
result_type: kon (M⁻¹ s⁻¹)
Answers are plain numbers, in M⁻¹ s⁻¹.

See these solved cases before continuing.
The binder identified as Ab121 (antibody, human IgG4 S228P, kappa, V domains shown) VH: QVTLRESGPALVKPTQTLTLTCTVSGFSFSTSGMVVNWIRQPPGKALEWLAMIDWDADNIVYNSALKSRLTISKDTSKNQVVLTMTNMDPVDTATYYCAKDTGSGWFDAFDIWGQGTMVTVSS VL: DIVMTQSPDSLAVSLGERATINCKSSQSVLYSSTNQNFLAWYQQKPGQPPKLLIYQASTLQNGVPDRFSGSGSGTDFTLTISSLQAEDVAVYYCQQYLTTPYTFGGGTKVEIKR registered its kon at 3.16e+06

The binder identified as Ab138 (antibody, human IgG4 S228P, kappa, V domains shown) VH: EVQLVESGGGLVQPGGSLRLSCAASGFTFTSYGMSWVRQAPGKGLELVASITGSKGETYYPDSVKGRFTISRDNAKNSLYLQMNSLRAEDTAVYYCARDLLVRFLEWSHYYGMDVWGQGTTVTVSS VL: DIVMTQSPLSLPVTPGEPASISCRSSQSLLHSSGHNFLHWYLQKPGQSPQLLIYETSNRAPGIPDRFSGSGSGTDFTLKISRVEAEDVGVYYCQQATQFPRPFGGGTKVEIKR registered its kon at 5.27e+06

The binder identified as Ab133 (antibody, human IgG4 S228P, kappa, V domains shown, human IgG4 in the EM experiment; also called Ab133 Human IgG4) VH: EVQLVESGGGLVQPGGSLRLSCAASGFTFSSYGMSWVRQAPGKGLELVASFTGSGGAYYPDSVKGRFTISRDNAKNSLYLQMNSLRAEDTAVYYCARDLLIRFLEWSHYYGMDVWGQGTTVTVSS VL: DIVMTQSPLSLPVTPGEPASISCRSSQSLLHSSGHNFLHWYLQKPGQSPQLLIYEVSNRVSGVPDRFSGSGSGTDFTLKISRVEAEDVGVYYCQQQTQYPGTFGGGTKVEIKR registered its kon at 2.84e+06

The binder identified as Ab141 (antibody, human IgG4 S228P, kappa, V domains shown) VH: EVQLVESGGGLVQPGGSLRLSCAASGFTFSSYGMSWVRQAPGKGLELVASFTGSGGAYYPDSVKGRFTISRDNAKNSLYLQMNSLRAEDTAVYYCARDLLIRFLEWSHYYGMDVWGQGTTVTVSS VL: DIVMTQSPLSLPVTPGEPASISCRSSQSLLHSSGHNFLHWYLQKPGQSPQLLIYEVSNRVSGVPDRFSGSGSGTDFTLKISRVEAEDVGVYYCMQQTQYPGTFGGGTKVEIKR registered its kon at 2.79e+06

Now take the following binder into account.
The binder identified as Ab101 (antibody, human IgG4 S228P, kappa, V domains shown) VH: EVQLVESGGGLVQPGGSLRLSCAASGSAFSSYGMSWVRQAPGKGLELVASINSNGGSTYYPDSVKGRFTISRDNAKNSLYLQMNSLRAEDTAVYYCARDLLVRFLEWSHYYGMDVWGQGTTVTVSS VL: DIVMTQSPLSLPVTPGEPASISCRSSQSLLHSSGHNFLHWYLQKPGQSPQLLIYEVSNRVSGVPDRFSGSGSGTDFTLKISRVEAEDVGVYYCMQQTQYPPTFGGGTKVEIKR registered its kon at 4.37e+06
